- Assay Target: Adenosine receptor A2a
- Assay Remarks: For A1 adenosine receptors, […] of protein were incubated for 60 min at 25°C with [3H]DPCPX 0.5 nM (Kd = 0.4 nM) and increasing concentrations of the compounds, in a final volume of 0.4 mL of Tris-HCl buffer. Binding reaction was terminated by dilution with ice-cold 50 mM Tris-HCl buffer, pH 7.4.For A2A and A3 adenosine receptors, […]
Measured Property: Ki (µM)

Structure String: O=C(Nc1nc(-c2ccccc2)nc2c1nnn2Cc1ccccc1F)C1CCCCC1
Readout Units: µM
Data Value: 0.413
--
Structure String: O=C(Nc1nc(-c2ccccc2)nc2c1nnn2Cc1ccccc1F)c1ccoc1
Readout Units: µM
Data Value: 0.091
--
Structure String: O=C(Nc1nc(-c2ccccc2)nc2c1nnn2Cc1ccccc1F)c1ccco1
Readout Units: µM
Data Value: 0.224

[1] O=C(Nc1nc(-c2ccccc2)nc2c1nnn2Cc1ccccc1F)C1CCCC1
[2] O=C(Nc1nc(-c2ccccc2)nc2c1nnn2Cc1ccccc1F)C1CCC1
[3] O=C(Nc1nc(-c2ccccc2)nc2c1nnn2Cc1ccccc1F)C1CC1
Provide the items ranked by increasing Ki. Answer by writing out the labels in the requested order.
2, 1, 3
(2: 0.072 µM, 1: 0.19 µM, 3: 0.292 µM)

----------
- Assay Target: Adenosine receptor A1 (rat)
- Assay Remarks: For A1 adenosine receptors, […] of protein were incubated for 60 min at 25°C with [3H]DPCPX 0.5 nM (Kd = 0.4 nM) and increasing concentrations of the compounds, in a final volume of 0.4 mL of Tris-HCl buffer. Binding reaction was terminated by dilution with ice-cold 50 mM Tris-HCl buffer, pH 7.4.For A2A and A3 adenosine receptors, […]
Measured Property: Ki (nM)

Sample records with Ki:
Structure String: O=C(Nc1nc(-c2ccccc2)nc2c1nnn2Cc1ccccc1F)c1cccc(F)c1
Ki, nM: 5.5

Structure String: O=C(Nc1nc(-c2ccccc2)nc2c1nnn2Cc1ccccc1F)c1ccc(I)cc1
Ki, nM: 92

Structure String: O=C(Nc1nc(-c2ccccc2)nc2c1nnn2Cc1ccccc1F)c1cccc(Cl)c1
Ki, nM: 43

[a] O=C(Nc1nc(-c2ccccc2)nc2c1nnn2Cc1ccccc1F)C1CCCCC1
[b] Nc1nc(-c2ccccc2)nc2c1nnn2Cc1ccccc1F
Of a and b , which one carries the higher reported Ki? Mark your answer with the label of the selected entry.
b

----------
- Assay Target: Adenosine receptor A1 (rat)
- Assay Remarks: For A1 adenosine receptors, […] of protein were incubated for 60 min at 25°C with [3H]DPCPX 0.5 nM (Kd = 0.4 nM) and increasing concentrations of the compounds, in a final volume of 0.4 mL of Tris-HCl buffer. Binding reaction was terminated by dilution with ice-cold 50 mM Tris-HCl buffer, pH 7.4.For A2A and A3 adenosine receptors, […]
Measured Property: Ki (nM)

Structure String: O=C(Nc1nc(-c2ccccc2)nc2c1nnn2Cc1ccccc1F)c1cccc([N+](=O)[O-])c1
Measured Property: Ki
Data Value: 28

[a] O=C(Nc1nc(-c2ccccc2)nc2c1nnn2Cc1ccccc1F)C1CC1
[b] Nc1ccc(C(=O)Nc2nc(-c3ccccc3)nc3c2nnn3Cc2ccccc2F)cc1
Of a and b , which one carries the higher reported Ki? Mark your answer with the label of the selected entry.
b
(b: 18 nM, a: 9.2 nM)

----------
- Assay Target: Adenosine receptor A1 (rat)
- Assay Remarks: For A1 adenosine receptors, […] of protein were incubated for 60 min at 25°C with [3H]DPCPX 0.5 nM (Kd = 0.4 nM) and increasing concentrations of the compounds, in a final volume of 0.4 mL of Tris-HCl buffer. Binding reaction was terminated by dilution with ice-cold 50 mM Tris-HCl buffer, pH 7.4.For A2A and A3 adenosine receptors, […]
Measured Property: Ki (nM)

[1] O=C(Nc1nc(-c2ccccc2)nc2c1nnn2Cc1ccccc1F)c1ccoc1
[2] O=C(Nc1nc(-c2ccccc2)nc2c1nnn2Cc1ccccc1F)C1CCCC1
[3] O=C(Nc1nc(-c2ccccc2)nc2c1nnn2Cc1ccccc1F)C1CCC1
[4] O=C(Nc1nc(-c2ccccc2)nc2c1nnn2Cc1ccccc1F)c1ccco1
[5] O=C(Nc1nc(-c2ccccc2)nc2c1nnn2Cc1ccccc1F)c1ccc([N+](=O)[O-])cc1
Give the descending Ki ranking for the 5 molecules listed above. Answer by writing out the labels in the requested order.
5, 4, 1, 2, 3
